Molecular target: T1, CeMETT10-FLΔL (Caenorhabditis elegans, UniProt Q09357 1-479, del386-430)
T1 sequence: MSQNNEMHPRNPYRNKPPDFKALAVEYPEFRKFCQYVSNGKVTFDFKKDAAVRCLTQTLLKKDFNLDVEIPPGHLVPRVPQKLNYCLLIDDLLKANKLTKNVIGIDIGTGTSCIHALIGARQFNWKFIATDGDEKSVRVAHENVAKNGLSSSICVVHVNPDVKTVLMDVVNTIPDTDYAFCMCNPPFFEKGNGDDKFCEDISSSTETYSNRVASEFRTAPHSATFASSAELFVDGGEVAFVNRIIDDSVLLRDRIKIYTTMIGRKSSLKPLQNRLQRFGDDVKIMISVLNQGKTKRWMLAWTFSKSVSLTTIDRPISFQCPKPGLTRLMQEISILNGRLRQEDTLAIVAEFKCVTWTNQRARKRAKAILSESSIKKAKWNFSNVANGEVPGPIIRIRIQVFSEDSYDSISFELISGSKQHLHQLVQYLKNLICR
Assay: EMSA
measurement_name: pKd
In simple prose, pKd is minus the logarithm base ten of a concentration in moles per litre.

For the binder shown here, sams-hp-ls (structured_RNA) RNA: GGCAACAAUAUGUUUCUUUACCUGUUACAACGGUUACUUUGAUUACAGAAACGGUGACUAAAACGGGUAUGAUCAUGUUGUGCCC , give the reported pKd.
6.85
